Where do these numbers come from? They come from ChEMBL document CHEMBL3763044.

- Protocol Details: Lipophilicity Log P of the compound
- Format: physicochemical
- Condition Parameters: octanol/water
Observation Type: logP

{"Chemical Smiles": "O=C(Cc1ccc(F)c(Cl)c1)Nc1cnc(C(=O)NO)c(O)c1CO", "Measurement": 0.6}

====

- Study Target: RNA-directed RNA polymerase (Hepacivirus hominis, UniProt O39930)
- Sequence (O39930 whole entry): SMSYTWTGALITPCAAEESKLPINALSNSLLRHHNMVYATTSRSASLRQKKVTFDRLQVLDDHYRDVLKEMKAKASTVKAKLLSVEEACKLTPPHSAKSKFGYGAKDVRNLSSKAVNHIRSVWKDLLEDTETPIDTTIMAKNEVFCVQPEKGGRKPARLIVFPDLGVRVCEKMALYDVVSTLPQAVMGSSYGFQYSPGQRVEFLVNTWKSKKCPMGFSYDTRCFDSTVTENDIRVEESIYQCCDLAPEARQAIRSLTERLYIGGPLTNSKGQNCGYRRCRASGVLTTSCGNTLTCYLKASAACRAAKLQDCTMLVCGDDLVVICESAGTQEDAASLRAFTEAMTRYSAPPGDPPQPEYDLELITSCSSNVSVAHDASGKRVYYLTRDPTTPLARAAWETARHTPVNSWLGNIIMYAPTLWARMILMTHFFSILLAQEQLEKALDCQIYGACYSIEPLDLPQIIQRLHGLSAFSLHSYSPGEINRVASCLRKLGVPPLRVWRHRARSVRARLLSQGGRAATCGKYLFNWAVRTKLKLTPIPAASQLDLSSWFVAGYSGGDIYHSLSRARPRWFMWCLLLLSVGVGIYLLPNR
- Protocol Details: Inhibition of HCV RNA polymerase
pEC50: −log10 of the molar value.
Observation Type: pEC50

{"Chemical Smiles": "O=C(Cc1ccc(F)c(Cl)c1)Nc1cnc(C(=O)NO)c(O)c1CO", "Observation Type": "pEC50", "Measurement": "< 4.30"}

====

- Protocol Details: Plasma concentration in rat at 50 mg/kg after 18 hrs
- Type: ADME, organism-based

{"Chemical Smiles": "O=C(Cc1ccc(F)c(Cl)c1)Nc1cnc(C(=O)NO)c(O)c1CO", "concentration at 18 h": "> 25 nM"}

====

- Study Target: Human immunodeficiency virus type 1 integrase (Human immunodeficiency virus 1, UniProt Q7ZJM1, N155H)
- Sequence (Q7ZJM1 entry or part of it N155H): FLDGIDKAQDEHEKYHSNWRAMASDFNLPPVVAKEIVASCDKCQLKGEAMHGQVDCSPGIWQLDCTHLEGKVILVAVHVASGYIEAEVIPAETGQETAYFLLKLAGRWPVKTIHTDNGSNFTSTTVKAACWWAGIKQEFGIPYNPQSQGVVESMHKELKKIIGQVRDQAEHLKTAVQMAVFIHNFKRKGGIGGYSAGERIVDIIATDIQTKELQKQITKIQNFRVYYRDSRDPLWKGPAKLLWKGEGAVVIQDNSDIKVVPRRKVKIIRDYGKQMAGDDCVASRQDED
- Protocol Details: Inhibition of HIV integrase N155H mutant

{"Chemical Smiles": "O=C(Cc1ccc(F)c(Cl)c1)Nc1cnc(C(=O)NO)c(O)c1CO", "EC50": "> 300 nM"}

====

- Protocol Details: Cytotoxicity against human MT4 cells
- Type: cell-based

{"Chemical Smiles": "O=C(Nc1cnc(C(=O)NO)c(O)c1CO)c1ccc(F)cc1", "CC50 [µM]": 50}
{"Chemical Smiles": "O=C(Cc1ccc(F)c(Cl)c1)Nc1cnc(C(=O)NO)c(O)c1CO", "CC50 [µM]": 22}
{"Chemical Smiles": "O=C(NO)c1ncc(COc2ccc(F)cc2)c(CO)c1O", "CC50 [µM]": 27}
{"Chemical Smiles": "O=C(Cc1ccc(F)c(F)c1)Nc1cnc(C(=O)NO)c(O)c1CO", "CC50 [µM]": 51}
{"Chemical Smiles": "O=C(NO)c1ncc(CS(=O)(=O)Cc2ccc(F)cc2)c(CO)c1O", "CC50 [µM]": 16}
{"Chemical Smiles": "O=C(NCCc1ccc(F)cc1)c1cnc(C(=O)NO)c(O)c1CO", "CC50 [µM]": 23}
{"Chemical Smiles": "O=C(NO)c1ncc(CCc2ccc(F)cc2)c(CO)c1O", "CC50 [µM]": 21}
{"Chemical Smiles": "O=C(NO)c1ncc(CCCc2ccc(F)cc2)c(CO)c1O", "CC50 [µM]": 2}
{"Chemical Smiles": "COc1ccc(CC(=O)Nc2cnc(C(=O)NO)c(O)c2CO)cc1", "CC50 [µM]": 25}
{"Chemical Smiles": "O=C(Cc1ccccc1)Nc1cnc(C(=O)NO)c(O)c1CO", "CC50 [µM]": 54}
{"Chemical Smiles": "O=C(NO)c1ncc(CNc2ccc(F)cc2)c(CO)c1O", "CC50 [µM]": 50}
{"Chemical Smiles": "O=C(NO)c1ncc(COCc2ccc(F)cc2)c(CO)c1O", "CC50 [µM]": 11}
{"Chemical Smiles": "O=C(Nc1ccc(F)cc1)c1cnc(C(=O)NO)c(O)c1CO", "CC50 [µM]": 50}
{"Chemical Smiles": "O=C(CC1CCCCC1)Nc1cnc(C(=O)NO)c(O)c1CO", "CC50 [µM]": 50}
{"Chemical Smiles": "O=C(Cc1ccc2c(c1)OCO2)Nc1cnc(C(=O)NO)c(O)c1CO", "CC50 [µM]": 50}

====

- Protocol Details: Therapeutic index, ratio of CC50 for human MT4 cells to EC50 for luciferase-bearing envelope-defective HIV-1 NL4-3 pseudotype virus infected in human MT4 cells co-infected with HIV1 HXBc2 envelope
- Type: cell-based
- Condition Parameters: read-out: Ratio CC50/EC50

{"Chemical Smiles": "O=C(Cc1ccc(F)c(Cl)c1)Nc1cnc(C(=O)NO)c(O)c1CO", "selectivity ratio": "> 1000"}

====

- Protocol Details: Inhibition of HIV integrase strand transfer activity
- Parameters: species or system Human immunodeficiency virus
pIC50: −log10 of the molar value.
The entries below come with measured pIC50 values attached.

{"Chemical Smiles": "O=C(NCCc1ccc(F)cc1)c1cnc(C(=O)NO)c(O)c1CO", "pIC50": 5.64}
{"Chemical Smiles": "O=C(NO)c1ncc(CNCc2ccc(F)cc2)c(CO)c1O", "pIC50": 6.26}
{"Chemical Smiles": "O=C(NO)c1ncc(CCc2ccc(F)cc2)c(CO)c1O", "pIC50": 6.49}
{"Chemical Smiles": "O=C(NO)c1ncc(CCCc2ccc(F)cc2)c(CO)c1O", "pIC50": 6.26}
{"Chemical Smiles": "O=C(Cc1ccc(F)c(Cl)c1)Nc1cnc(C(=O)NO)c(O)c1CO", "pIC50": 7.54}
{"Chemical Smiles": "O=C(NO)c1ncc(CS(=O)(=O)Cc2ccc(F)cc2)c(CO)c1O", "pIC50": 5.64}

====

Overview of reported CC50 across a group of molecules:
- Protocol Details: Cytotoxicity against human MT4 cells
- Type: cell-based

{"Chemical Smiles": "Cc1ccc(CC(=O)Nc2cnc(C(=O)NO)c(O)c2CO)cc1", "CC50": "32 µM"}
{"Chemical Smiles": "O=C(Cc1ccc(Cl)c(Cl)c1)Nc1cnc(C(=O)NO)c(O)c1CO", "CC50": "50 µM"}
{"Chemical Smiles": "O=C(NO)c1ncc(/C=C/c2ccc(F)cc2)c(CO)c1O", "CC50": "50 µM"}
{"Chemical Smiles": "O=C(NO)c1ncc(CNCc2ccc(F)cc2)c(CO)c1O", "CC50": "20 µM"}
{"Chemical Smiles": "O=C(NO)c1ncc(CS(=O)(=O)c2ccc(F)cc2)c(CO)c1O", "CC50": "50 µM"}
{"Chemical Smiles": "O=C(Cc1cc(F)cc(F)c1)Nc1cnc(C(=O)NO)c(O)c1CO", "CC50": "31 µM"}

====

- Protocol Details: Plasma protein binding in rat by Rapid Equilibrium Dialysis method
- Type: ADME, cell-free
- Condition Parameters: read-out: PPB (converted)
Observation Type: fraction unbound

{"Chemical Smiles": "O=C(Cc1ccc(F)c(Cl)c1)Nc1cnc(C(=O)NO)c(O)c1CO", "Measurement": 0.11}

====

- Protocol Details: Inhibition of HIV integrase strand transfer activity
- Parameters: species or system Human immunodeficiency virus
pIC50: −log10 of the molar value.
Mark label 0 for pIC50 values under 7, and label 1 for everything at or above.

{"Chemical Smiles": "O=C(NO)c1ncc(CSc2ccc(F)cc2)c(CO)c1O", "Assigned Category": "label 0"}
{"Chemical Smiles": "O=C(Nc1cnc(C(=O)NO)c(O)c1CO)c1ccc(F)cc1", "Assigned Category": "label 0"}
{"Chemical Smiles": "O=C(NO)c1ncc(CNc2ccc(F)cc2)c(CO)c1O", "Assigned Category": "label 1"}
{"Chemical Smiles": "O=C(Nc1ccc(F)cc1)c1cnc(C(=O)NO)c(O)c1CO", "Assigned Category": "label 0"}
{"Chemical Smiles": "O=C(NO)c1ncc(CS(=O)(=O)c2ccc(F)cc2)c(CO)c1O", "Assigned Category": "label 0"}
{"Chemical Smiles": "O=C(NO)c1ncc(COc2ccc(F)cc2)c(CO)c1O", "Assigned Category": "label 1"}
{"Chemical Smiles": "O=C(NO)c1ncc(/C=C/c2ccc(F)cc2)c(CO)c1O", "Assigned Category": "label 0"}
